experiment.notes: Plasma pharmacokinetics after single intravenous and oral dose
Assay type: in vivo, male BALB/c mice
condition.set: male, BALB/c, mouse; PO 5 mg/kg, plasma
readout.kind: AUC(0-t) (µg·h/mL)
Note: unit µg·h/mL is implicit; provide only the numeric part.

For the molecule Cn1c(=O)c2c(ncn2CC(=O)Nc2ccc(-c3ccccc3O)nn2)n(C)c1=O [Compound 1] , what AUC(0-t) is on record?
3.11

* * *

experiment.notes: Plasma pharmacokinetics after single intravenous and oral dose
Assay type: in vivo, male BALB/c mice
condition.set: male, BALB/c, mouse, plasma, iv, 1 mg/kg, IV 1 mg/kg, 2 hr; read-out: Plasma concentration, individual animals
Procedure: The objective of this study was to investigate the plasma pharmacokinetics of Compound 1 in male BALB/c mice following a single intravenous and oral dose administration. A group of eighteen male mice were divided in to two groups as Group 1 and Group 2 with nine mice in each group. […] Concentrations of Compound 1 in mouse plasma samples were determined by fit-for-purpose LC-MS/MS method. […]
readout.kind: concentration at 2 hr (µg/mL)
Note: unit µg/mL is implicit; provide only the numeric part.

For the compound Cn1c(=O)c2c(ncn2CC(=O)Nc2ccc(-c3ccccc3O)nn2)n(C)c1=O , what concentration at 2 hr is on record?
0.0425

* * *

experiment.notes: Plasma pharmacokinetics after single intravenous and oral dose
Format: in vivo, male BALB/c mice
condition.set: male, BALB/c, mouse, plasma; IV 1 mg/kg, terminal elimination half-life; read-out: T1/2 (converted)
readout.kind: half-life (h)
Note: unit h is implicit; provide only the numeric part.

For the compound Cn1c(=O)c2c(ncn2CC(=O)Nc2ccc(-c3ccccc3O)nn2)n(C)c1=O , what half-life is on record?
4.24

* * *

Test system: HEK293-STF3A cells
experiment.notes: STF3A assay (Wnt reporter luciferase)
Assay type: cell-based
condition.set: Homo sapiens, 24 h, 1 day of treatment, read-out: IC50 activities on STF3A cells
readout.kind: pIC50
Conceptually, pIC50 converts a concentration in mol/L into minus its log10.

For the molecule Cn1c(=O)c2c(ncn2CC(=O)Nc2ccc(-c3ccccc3O)nn2)n(C)c1=O [Compound 1] , what pIC50 is on record?
8.05

* * *

experiment.notes: Plasma pharmacokinetics after single intravenous and oral dose
Assay type: in vivo, male BALB/c mice
condition.set: male, BALB/c, mouse, plasma, po, 5 mg/kg, PO 5 mg/kg, 2 hr; read-out: Plasma concentration, Mean
readout.kind: concentration at 2 hr (ng/mL)
Note: unit ng/mL is implicit; provide only the numeric part.

For the compound Cn1c(=O)c2c(ncn2CC(=O)Nc2ccc(-c3ccccc3O)nn2)n(C)c1=O [Compound 1] , what concentration at 2 hr is on record?
411

* * *

experiment.notes: Plasma pharmacokinetics after single intravenous and oral dose
Assay type: in vivo, male BALB/c mice
condition.set: male, BALB/c, mouse, plasma, iv, 1 mg/kg, IV 1 mg/kg, 1 hr; read-out: Plasma concentration, Mean
Experimental: The objective of this study was to investigate the plasma pharmacokinetics of Compound 1 in male BALB/c mice following a single intravenous and oral dose administration. A group of eighteen male mice were divided in to two groups as Group 1 and Group 2 with nine mice in each group. […] Concentrations of Compound 1 in mouse plasma samples were determined by fit-for-purpose LC-MS/MS method. […]
readout.kind: concentration at 1 hr (ng/mL)
Note: unit ng/mL is implicit; provide only the numeric part.

For the compound Cn1c(=O)c2c(ncn2CC(=O)Nc2ccc(-c3ccccc3O)nn2)n(C)c1=O [Compound 1] , what concentration at 1 hr is on record?
306
